System: SK-MEL-5 melanoma
Experiment: NCI tumour cell line growth inhibition, 48 h; in the data active = GI50 below about 0.43 µM; inactive = the rest
Bench note: report the call from label 1 = active, label 0 = inactive

A selection of reference data follows.
compound | groupLabel
CC(C)=CCC[C@H](C)[C@@H]1CC[C@]2(C)C3CC[C@]4(OC4(C)C)C(CCCO)[C@]3(C)CC[C@@]12C (stereo not given in full) | label 0
O=C1CC(c2ccc(N3CCOCC3)cc2)(c2ccsc2)NC(=O)C1Sc1ccccc1Cl (stereo not given) | label 0
C1=Cc2ccccc2Nc2ccccc21 | label 0

For this compound, state the assay outcome: CN(C)c1ccc(N2Cc3ccccc3OC3=C2C(=O)c2c(O)ccc(O)c2C3=O)cn1
label 0

Same for COc1cc(C(=O)c2ccc3c(c2)OCO3)cc(OC)c1OC
label 0

Same thing, different compound: CC1=CC(=NC(=O)CBr)C=C/C1=N\S(=O)(=O)c1ccccc1
label 0

Now the compound COc1cc(NS(C)(=O)=O)ccc1Nc1c2ccc(Cl)cc2nc2c(OC)cccc12
label 1

Another compound to look at: CC(=O)N1N=C2/C(=C/c3ccccc3)CC(C)CC2C1c1ccccc1 (stereo not given)
label 0

Then COc1ccccc1OCC(=O)Nc1sc2c(c1C(N)=O)CCC2 ?
label 0

// query: O=c1c2cccc(Cl)c2sc2c(NCCCNCCO)nc3ccccc3c12
label 0

---

Tested on: MDA-MB-231 breast
Assay: NCI tumour cell line growth inhibition, 48 h
measuredAttribute: TGI (µM)
The reply should contain only the number, in µM.

Example results:
compound | assaySystem | valueReported
O=C1C=CC2(O[C@H](c3ccccc3)[C@@H](c3ccccc3)O2)C(SC(=O)c2ccccc2)C1 (stereo partly drawn) | MDA-MB-231 breast | 18
O=c1cc(-c2cccc(C(F)(F)F)c2)[nH]c2cc3c(cc12)OCO3 | MDA-MB-231 breast | 30.1
Cc1ccc2c(c1)C(=O)/C(=C\c1ccccc1)CCS2(=O)=O | MDA-MB-231 breast | 35.5
CC1=C[C@H]2c3c(c(O)c(O)c4oc5c(C)cccc5c(=O)c34)[C@H](c3cc(O)c(O)c4oc5c(C)cccc5c(=O)c34)[C@H]2C(C)(C)C1 | MDA-MB-231 breast | 14.6
COc1ccc2nc(-c3cc(-c4cc(OC)c(OC)c(OC)c4)n[nH]3)[nH]c2c1 | MDA-MB-231 breast | 12.9
O=C1/C(=C\c2ccc(Cl)cc2Cl)Sc2scc(-c3cccc([N+](=O)[O-])c3)[n+]21 | MDA-MB-231 breast | 25.1
O=[N+]([O-])C(Cl)C(Cl)C(Cl)=C(Cl)Cl (stereo not drawn) | MDA-MB-231 breast | 34.6
O=C(Nc1ccccc1O)c1cccc(NC2=C(Cl)C(=O)N(Cc3ccccc3)C2=O)c1 | MDA-MB-231 breast | 7.53
CCC(C)(C)C(=O)O[C@H]1C[C@@H](C)C=C2C=C[C@H](C)[C@H](CC[C@@H]3C[C@@H](O)CC(=O)O3)[C@H]21 | MDA-MB-231 breast | 0.732
COC1=C2CC(C)CC(OC)[C@@H](OC(=O)CCN)[C@H](C)/C=C(\C)C(OC(N)=O)C(OC)/C=C\C=C(/C)C(=O)NC(=CC1=O)C2=O (stereo partly drawn) | MDA-MB-231 breast | 7.47

Record lookup: for MDA-MB-231 breast, what TGI belongs to CC(=O)O[C@H]1C(=O)[C@@]2(C)[C@H]([C@H](OC(=O)c3ccccc3)[C@]3(O)C[C@H](OC(=O)[C@H](OC(=O)OCCC(O)CO)[C@@H](NC(=O)c4ccccc4)c4ccccc4)C(C)=C1C3(C)C)[C@]1(OC(C)=O)CO[C@@H]1C[C@@H]2O (stereo partly drawn) ?
21.6

Next: COc1cccc(C2c3cc4c(cc3OC(C)(O)C2C)OCO4)c1O (stereo not drawn)
19.2

Same question for CC[C@H](C)[C@H]1NC(=O)[C@@H](N[C@](C)(O)[C@@H](N)CC(C)C)[C@@H](C)OC(=O)[C@H](Cc2ccc(OC)cc2)N(C)C(=O)[C@@H]2CCCN2C(=O)[C@H](CC(C)C)NC(=O)[C@@H](C)C(=O)[C@H](C(C)C)OC(=O)C[C@@H]1O please.
0.233

Follow-up entry: CC1=NN(c2cccc(Cl)c2)C2(SCC(=O)N2c2nc3ccccc3s2)/C1=C\c1ccc(Cl)cc1 (stereo not drawn)
72

Same read-out for CCOC(=O)c1cc2c(ccc3cc(C(=O)OCC)[nH]c32)[nH]1 ?
28.7
